assayRemarks: inhibitors of Toxoplasma growth in IFN-γ-primed HeLa – cell-based, ME49Luc, luciferase, 72 h, dose response (AID 1259418)
cond: T. gondii ME49Luc in IFN-y HeLa, active compounds read low, -100% = high-dose IFN-γ control wells; at 19.5 µM unless noted
Out of some 3,400 compounds screened, about 840 (25%) were called active. About 11% were inconclusive and are not listed. Only a sample is shown. Potency and affinity values are given separately.
max activity reference

// solved cases for max activity follow
>>> df
                                   compound                  valueobserved
0  CN(C)S(=O)(=O)N1C[C@@H]2CN(Cc3ccoc3)CCO[C@H]2C1               25.4% (inactive)
1  O=C(NCCc1csc(-c2ccccc2)n1)C1CCN(S(=O)(=O)c2ccccc2)CC1    11.6% [at 10 µM] (inactive)
2  Cc1ccc(C(=O)N2CCC3(CC2)Nc2cc(F)ccc2-n2cccc23)cc1  6.63% [at 0.16 µM] (inactive)

Kindly review the next compound as well.
The compound listed as "COc1ccc(CN2CCc3nc(SCc4nc(-c5ccccc5)oc4C)[nH]c(=O)c3C2)cc1" has a reported max activity of -18.7% [at 2.6 µM] (inactive)

====

assayRemarks: inhibitors of Toxoplasma growth in IFN-γ-primed HeLa – cell-based, ME49Luc, luciferase, 72 h, dose response (AID 1259418)
cond: T. gondii ME49Luc in IFN-y HeLa, active compounds read low, -100% = high-dose IFN-γ control wells; at 19.5 µM unless noted
In all, about 3,400 compounds went through this assay and about 840 (25%) were called active. Not shown: some 11% with an inconclusive outcome. Only a sample is shown. Entries with a potency or affinity are not part of this list.
observable: max activity

The compound listed as "c1cc(-c2nccn2CCn2ccnc2)ccn1" has a reported max activity of 11.4% (inactive)

The compound listed as "COCC(=O)N1CCC2(CC1)Nc1ccc(C)c(C)c1-n1cccc12" has a reported max activity of 4.86% [at 10 µM] (inactive)

The compound listed as "COc1ccccc1N(Cc1nc(-c2ccccc2)oc1C)S(=O)(=O)c1ccc(C)cc1" has a reported max activity of 13.3% [at 0.16 µM] (inactive)

The compound listed as "COc1ccc(S(=O)(=O)N(Cc2nc(-c3ccccc3)oc2C)c2ccccc2OC)cc1" has a reported max activity of -10.3% [at 5 µM] (inactive)

The compound listed as "COc1ccc2[nH]cc(CCNC(=O)c3cc(-c4ccccn4)nc4ccccc34)c2c1" has a reported max activity of -12.8% [at 5 µM] (inactive)

The compound listed as "CN1C(=O)CCc2cc(NC(=O)CC3CCCCC3)ccc21" has a reported max activity of 8.53% (inactive)

The compound listed as "COc1ccc(S(=O)(=O)Nc2ccc(-c3nc(-c4ccc(C)c(C)c4)co3)cc2)cc1" has a reported max activity of 54.5% [at 10 µM] (inactive)

====

assayRemarks: inhibitors of Toxoplasma growth in IFN-γ-primed HeLa – cell-based, ME49Luc, luciferase, 72 h, dose response (AID 1259418)
cond: T. gondii ME49Luc in IFN-y HeLa, active compounds read low, -100% = high-dose IFN-γ control wells; at 19.5 µM unless noted
Screen size: about 3,400 compounds; about 840 (25%) were called active. About 11% were inconclusive and are not listed. These entries were drawn from the full list. Potency and affinity values are given separately.
max activity reference

// solved cases for max activity follow
>>> print(df.to_string())
                                   compound                   valueobserved
0  Cc1ccc(-c2coc(-c3ccc(NC(=O)CC(C)C)cc3)n2)cc1                  33% (inactive)
1     Cc1nc(OCC(=O)Nc2cc(F)ccc2C)c2ccccc2n1     23.1% [at 10 µM] (inactive)
2       CCc1nc(OCC(=O)Nc2ccccc2F)c2ccccc2n1     12.8% [at 10 µM] (inactive)
3  CCOc1ccc(-c2nc(CN3CCN(C(=O)Nc4cccc(C)c4C)CC3)c(C)o2)cc1  -7.65% [at 0.68 µM] (inactive)
4  CCN1CCCC1CNC(=O)Cn1cccc1-c1nc(-c2ccccc2)cs1 (stereo not given)                 -11% (inactive)
5  CCOC(=O)C1CCN(C(=O)Cn2cccc2-c2nc(-c3ccc(C)cc3)cs2)CC1                11.7% (inactive)
6  Cc1nc(Nc2ccc(F)cn2)sc1C(=O)N1CCC(C(N)=O)(N2CCCCC2)CC1                6.22% (inactive)
7  Cc1ccc(-c2coc(-c3ccc(NC(=O)Nc4ccccc4C)cc3)n2)c(C)c1     21.8% [at 10 µM] (inactive)

The compound listed as "Cc1ccc(-c2csc(-c3cccn3CC(=O)N3CCC(N4CCCCC4)CC3)n2)cc1" has a reported max activity of 6.16% [at 0.16 µM] (inactive)

The compound listed as "Clc1cccc(CSc2nc(NC3CCCCC3)c3ccccc3n2)c1" has a reported max activity of 11% [at 10 µM] (inactive)

====

assayRemarks: inhibitors of Toxoplasma growth in IFN-γ-primed HeLa – cell-based, ME49Luc, luciferase, 72 h, dose response (AID 1259418)
cond: T. gondii ME49Luc in IFN-y HeLa, active compounds read low, -100% = high-dose IFN-γ control wells; at 19.5 µM unless noted
Hit rate of the full screen: of about 3,400 compounds, about 840 (25%) were called active. Inconclusive results (about 11%) are left out. Not all results are given here. Measured potencies and affinities stand elsewhere.
observable: max activity

// solved cases for max activity follow
In [3]: df
Out[3]:
                                   compound    observable                   valueobserved
0  O=C(C[C@H]1CC[C@H]2[C@@H](COC[C@@H](O)CN2S(=O)(=O)c2ccccc2F)O1)N1CCC(Cc2ccccc2)CC1  max activity     25.4% [at 10 µM] (inactive)
1  CCN(CCN(C)C)c1nc(-c2ccc(OC)cc2)nc2ccccc12  max activity               -29.5% (inactive)
2  CCOC(=O)CSC1=Nc2ccccc2C2=NC(CC(=O)NCc3cccs3)C(=O)N12 (stereo not given)  max activity                29.5% (inactive)
3  Cc1[nH]c2ccccc2c1C(=O)C(=O)NC1CC(=O)N(c2ccc3c(c2)OCCO3)C1 (stereo not given)  max activity                7.24% (inactive)
4    CCCN(CCC)c1nc(-c2ccc(OC)cc2)nc2ccccc12  max activity  -8.92% [at 0.35 µM] (inactive)

The compound listed as Cc1cccc(N2CCN(c3nc(-c4ccc(Cl)cc4)nc4ccccc34)CC2C)c1 (stereo not given) has a reported max activity of -29% [at 0.35 µM] (inactive)

The compound listed as "Cc1nc(OCC(=O)Nc2ccc(Cl)cc2Cl)c2ccccc2n1" has a reported max activity of 23% [at 5 µM] (inactive)

The compound listed as "CCCCN(Cc1ccco1)c1nc(-c2ccc(OC)cc2)nc2ccccc12" has a reported max activity of 14.7% [at 0.35 µM] (inactive)

The compound listed as "O=C(C[C@@H]1CC[C@H]2[C@@H](COC[C@H](O)CN2Cc2ccc(Oc3ccccc3)cc2)O1)N1CCN(c2ccccc2)CC1" has a reported max activity of 16% [at 10 µM] (inactive)

The compound listed as "Cc1nc(-c2ccccc2)sc1C(=O)Nc1ccc(-n2c(C)nc3ccccc3c2=O)cc1" has a reported max activity of -25.8% (inactive)

The compound listed as "O=C(NCCc1csc(-c2ccccc2)n1)C1CCN(C(=O)CCc2ccccc2)CC1" has a reported max activity of -11.1% (inactive)

The compound listed as O=C(CC1N=C2c3ccccc3N=C(SCc3ccccc3F)N2C1=O)NCc1ccc(F)cc1 (stereo not given) has a reported max activity of 15.6% [at 0.68 µM] (inactive)

The compound listed as "COC(=O)c1ccc(NC(=O)COc2nc(C)nc3ccccc23)cc1" has a reported max activity of 16% [at 2.6 µM] (inactive)

The compound listed as "COc1cccc(N(Cc2nc(-c3ccccc3)oc2C)S(=O)(=O)c2ccc(C)cc2)c1" has a reported max activity of -7.21% [at 1.35 µM] (inactive)

The compound listed as "COc1ccc(NC(=O)CN2CCC3(CC2)N=C(c2ccc(F)cc2)C(=O)N3)cc1" has a reported max activity of -27.9% [at 1.35 µM] (inactive)

The compound listed as "CCN(CC)Cc1cn2c(n1)CN(C(=O)c1cnc(C)cn1)CC2" has a reported max activity of -25.1% [at 10 µM] (inactive)

The compound listed as "Cc1ccc(-c2coc(-c3ccc(NC(=O)c4ccc(F)cc4)cc3)n2)cc1" has a reported max activity of 95.6% (inactive)

The compound listed as "COc1ccc(C(=O)N2CCC[C@@H]2C(=O)NCCc2csc(-c3ccccc3)n2)cc1" has a reported max activity of -13.9% (inactive)

The compound listed as "CN(c1nc(-c2ccc(Cl)cc2)nc2ccccc12)C1CCCCC1" has a reported max activity of 11.9% [at 0.68 µM] (inactive)

The compound listed as "COc1ccc(-c2nc(NCCCN(Cc3ccco3)C3CCCC3)c3ccccc3n2)cc1" has a reported max activity of -19.2% [at 5 µM] (inactive)

Value source: PubChem BioAssay AID1259418
